test system: S. aureus GC 1079; assay: MIC, broth microdilution; conditions: Staphylococcus aureus, GC1079, read-out: MINIMAL INHIBITORY CONCENTRATION MIC, pre-incubated in Water
OBSERVED PROPERTY: MIC (µg/mL)

# COMPOUND, OBSERVED PROPERTY, QUANTITATIVE READOUT
rows = [
    ("CCCN(CC(=O)Nc1cc(N(C)C)c2c(c1O)C(=O)C1=C(O)[C@]3(O)C(=O)C(C(N)=O)=C(O)[C@@H](N(C)C)[C@@H]3C[C@@H]1C2)C(=O)OCOC(=O)c1cc(C)cc(C)c1 [Example 26]", "MIC", 2),
    ("Cc1ccc(C(=O)OCOC(=O)N(CC(=O)Nc2cc(N(C)C)c3c(c2O)C(=O)C2=C(O)[C@]4(O)C(=O)C(C(N)=O)=C(O)[C@@H](N(C)C)[C@@H]4C[C@@H]2C3)C(C)(C)C)cc1 [Example 47]", "MIC", 2),
    ("CCCN(CC(=O)Nc1cc(N(C)C)c2c(c1O)C(=O)C1=C(O)[C@]3(O)C(=O)C(C(N)=O)=C(O)[C@@H](N(C)C)[C@@H]3C[C@@H]1C2)C(=O)OCOC(=O)c1ccc(C(C)(C)C)cc1 [Example 28]", "MIC", 64),
    ("CCCN(CC(=O)Nc1cc(N(C)C)c2c(c1O)C(=O)C1=C(O)[C@]3(O)C(=O)C(C(N)=O)=C(O)[C@@H](N(C)C)[C@@H]3C[C@@H]1C2)C(=O)OCOC(=O)c1ccc(-c2ccccc2)cc1 [Example 24]", "MIC", 64),
    ("CN(C)c1cc(NC(=O)CN(C(=O)OCOC(=O)CC(C)(C)C)C(C)(C)C)c(O)c2c1C[C@H]1C[C@H]3[C@H](N(C)C)C(O)=C(C(N)=O)C(=O)[C@@]3(O)C(O)=C1C2=O [Example 42]", "MIC", 4),
    ("CCCCN(CC(=O)Nc1cc(N(C)C)c2c(c1O)C(=O)C1=C(O)[C@]3(O)C(=O)C(C(N)=O)=C(O)[C@@H](N(C)C)[C@@H]3C[C@@H]1C2)C(=O)OCOC(=O)c1cc(C)cc(C)c1 [Example 22]", "MIC", 32),
]

---

tested on: Staph.; assay: Range of MIC for Staph. strains, including MRSA; details: Staphylococcus aureus, MRSA, read-out: Range of MIC, Staph (Mouse Serum)

# MOLECULE, MIC
measured = [
    ("CN(C)c1cc(NC(=O)CN(C(=O)OCOC(=O)CC2CCCC2)C(C)(C)C)c(O)c2c1C[C@H]1C[C@H]3[C@H](N(C)C)C(O)=C(C(N)=O)C(=O)[C@@]3(O)C(O)=C1C2=O", "0.5 to 2 mg/L"),
    ("CCCCCCCOc1ccc(C(=O)OCOC(=O)N(CC(=O)Nc2cc(N(C)C)c3c(c2O)C(=O)C2=C(O)[C@]4(O)C(=O)C(C(N)=O)=C(O)[C@@H](N(C)C)[C@@H]4C[C@@H]2C3)C(C)(C)C)cc1", "0.5 to 1 mg/L"),
    ("CCCCN(CC(=O)Nc1cc(N(C)C)c2c(c1O)C(=O)C1=C(O)[C@]3(O)C(=O)C(C(N)=O)=C(O)[C@@H](N(C)C)C3CC1C2)C(=O)OCOC(=O)c1ccc(OC)cc1 (some centres unmarked)", "1 to 8 mg/L"),
    ("CCCCC(=O)OCOC(=O)N(CC(=O)Nc1cc(N(C)C)c2c(c1O)C(=O)C1=C(O)[C@]3(O)C(=O)C(C(N)=O)=C(O)[C@@H](N(C)C)[C@@H]3C[C@@H]1C2)C(C)(C)C", "0.25 to 0.5 mg/L"),
    ("COc1cc(C(=O)OCOC(=O)N(CC(=O)Nc2cc(N(C)C)c3c(c2O)C(=O)C2=C(O)[C@]4(O)C(=O)C(C(N)=O)=C(O)[C@@H](N(C)C)[C@@H]4C[C@@H]2C3)C(C)(C)C)cc(OC)c1OC", "1 to 4 mg/L"),
]

---

Catalogue of molecules with associated MIC
tested on: E. faecalis GC 2242; assay: MIC, broth microdilution; settings: Enterococcus faecalis, GC2242, read-out: MINIMAL INHIBITORY CONCENTRATION MIC, pre-incubated in Water
OBSERVED PROPERTY: MIC (µg/mL)

# SMILES TEXT, TESTED SYSTEM, UOM, QUANTITATIVE READOUT
rows = [
    ("CCC(C)(C)C(=O)OCOC(=O)N(CC(=O)Nc1cc(N(C)C)c2c(c1O)C(=O)C1=C(O)[C@]3(O)C(=O)C(C(N)=O)=C(O)[C@@H](N(C)C)[C@@H]3C[C@@H]1C2)C(C)(C)C", "E. faecalis GC 2242", "µg/mL", 4),
    ("CCCN(CC(=O)Nc1cc(N(C)C)c2c(c1O)C(=O)C1=C(O)[C@]3(O)C(=O)C(C(N)=O)=C(O)[C@@H](N(C)C)[C@@H]3C[C@@H]1C2)C(=O)OCOC(=O)c1cc(C)cc(C)c1", "E. faecalis GC 2242", "µg/mL", 4),
    ("CCCN(CC(=O)Nc1cc(N(C)C)c2c(c1O)C(=O)C1=C(O)[C@]3(O)C(=O)C(C(N)=O)=C(O)[C@@H](N(C)C)[C@@H]3C[C@@H]1C2)C(=O)OCOC(=O)c1cccs1", "E. faecalis GC 2242", "µg/mL", 2),
    ("CCCN(CC(=O)Nc1cc(N(C)C)c2c(c1O)C(=O)C1=C(O)[C@]3(O)C(=O)C(C(N)=O)=C(O)[C@@H](N(C)C)[C@@H]3C[C@@H]1C2)C(=O)OCOC(=O)c1ccsc1", "E. faecalis GC 2242", "µg/mL", 0.5),
]

---

tested on: E. coli GC 2233; experiment: MIC, broth microdilution; conditions: Escherichia coli, GC2233, read-out: MINIMAL INHIBITORY CONCENTRATION MIC, Water
OBSERVED PROPERTY: MIC (µg/mL)

# SMILES TEXT, OBSERVED PROPERTY, UOM, COMPARISON OPERATOR, QUANTITATIVE READOUT
rows = [
    ("CN(C)c1cc(NC(=O)CN(C(=O)OCOC(=O)c2ccc(F)cc2)C(C)(C)C)c(O)c2c1C[C@H]1C[C@H]3[C@H](N(C)C)C(O)=C(C(N)=O)C(=O)[C@@]3(O)C(O)=C1C2=O", "MIC", "µg/mL", "=", 8),
    ("CCC(=O)OCOC(=O)N(CC(=O)Nc1cc(N(C)C)c2c(c1O)C(=O)C1=C(O)[C@]3(O)C(=O)C(C(N)=O)=C(O)[C@@H](N(C)C)[C@@H]3C[C@@H]1C2)C(C)(C)C", "MIC", "µg/mL", "=", 8),
    ("Cc1cc(C)cc(C(=O)OCOC(=O)N(CC(=O)Nc2cc(N(C)C)c3c(c2O)C(=O)C2=C(O)[C@]4(O)C(=O)C(C(N)=O)=C(O)[C@@H](N(C)C)[C@@H]4C[C@@H]2C3)C(C)(C)C)c1", "MIC", "µg/mL", ">", 64),
    ("CN(C)c1cc(NC(=O)CN(C(=O)OCOC(=O)C2CCCCC2)C(C)(C)C)c(O)c2c1C[C@H]1C[C@H]3[C@H](N(C)C)C(O)=C(C(N)=O)C(=O)[C@@]3(O)C(O)=C1C2=O", "MIC", "µg/mL", "=", 32),
]

---

system: S. pyogenes GC 4563; experiment: MIC, broth microdilution; conditions: Streptococcus pyogenes, GC4563, read-out: MINIMAL INHIBITORY CONCENTRATION MIC, pre-incubated in Water

# SMILES TEXT, COMPARISON OPERATOR, MIC (µg/mL)
measured = [
    ("CN(C)c1cc(NC(=O)CN(C(=O)OCOC(=O)C2CCCC2)C(C)(C)C)c(O)c2c1C[C@H]1C[C@H]3[C@H](N(C)C)C(O)=C(C(N)=O)C(=O)[C@@]3(O)C(O)=C1C2=O", "=", 0.25),
    ("Cc1ccc(C(=O)OCOC(=O)N(CC(=O)Nc2cc(N(C)C)c3c(c2O)C(=O)C2=C(O)[C@]4(O)C(=O)C(C(N)=O)=C(O)[C@@H](N(C)C)[C@@H]4C[C@@H]2C3)C(C)(C)C)cc1", "=", 0.25),
    ("CCCN(CC(=O)Nc1cc(N(C)C)c2c(c1O)C(=O)C1=C(O)[C@]3(O)C(=O)C(C(N)=O)=C(O)[C@@H](N(C)C)[C@@H]3C[C@@H]1C2)C(=O)OCOC(=O)c1ccc(-c2ccccc2)cc1", "<", 0.06),
    ("CCCN(CC(=O)Nc1cc(N(C)C)c2c(c1O)C(=O)C1=C(O)[C@]3(O)C(=O)C(C(N)=O)=C(O)[C@@H](N(C)C)[C@@H]3C[C@@H]1C2)C(=O)OCOC(=O)c1cccs1", "=", 0.25),
]
